Provenance of the data: PubChem BioAssay (NCI)

# System: CCRF-CEM leukemia
# assay-explanation: NCI tumour cell line growth inhibition, 48 h; in the data active = GI50 below about 0.43 µM; inactive = the rest
Tick one outcome: active, inactive

How did this test come out for Cn1cc(C2=C(c3c4n(c5ccccc35)CCN(C(N)=S)C4)C(=O)NC2=O)c2ccccc21 ?
inactive

Recorded call for Nc1c(C(=O)Nc2ccccn2)sc2nc3c(cc12)CCCCC3 ?
inactive

What did the test return for CCC(=C/[C@H](C)C/C=C/C(C)=C/[C@@H](C)C(=O)[C@@H](C)[C@H](O)[C@@H](C)CC)/C=C/[C@@H]1OC(=O)C=C[C@@H]1C ?
active

Could you check what this test reported for COc1cc(NC(=O)c2ccc(C(F)(F)F)nc2Nc2cc(Cl)ccc2C)cc(OC)c1OC ?
inactive

Fill in: this test's call for c1ccc(CSc2nnc3c4c5c(sc4nc(-c4cccnc4)n23)CCCCCC5)cc1 is ___
inactive

Write down the call the test reported for this compound. Item: COc1cc(OC)cc(C2C(C#N)=C(N)Oc3c2ccc2ccc(O)cc32)c1 (centres undefined)
active

Please indicate how the test categorized CCCCCCCCCCCC[C@H](O)[C@H]1CC[C@H]([C@H](O)CCCC[C@H](O)CCCCC[C@@H](O)CC2=C[C@H](C)OC2=O)O1 .
inactive

Record request — test call for CC1SC(c2ccc(Cl)c(Cl)c2)N(NC(=O)C(O)c2ccccc2)C1=O (centres undefined)
inactive

Hi, do you know how COc1ccc(C(O)c2cc3c(N)c(C(=O)Nc4cccc(OC)c4)sc3nc2C)cc1 (centres undefined) came out in this test?
inactive

---

Exercise: state measured TGI for each of the compounds provided.
# Test system: HOP-62 NSCLC
# assay-explanation: NCI tumour cell line growth inhibition, 48 h

Per the record, CC(C)(C)OC(=O)NCCCCCCC(=O)Cc1ccccc1 has TGI of > 100 µM

TGI in this record for N#Cc1ccc(Sc2ccccc2)cc1C#N : > 100 µM

Recorded result, c1ccc(CSSSCc2ccccc2)cc1 , TGI: 5.03 µM

---

# Test system: OVCAR-8 ovarian
# assay-explanation: NCI tumour cell line growth inhibition, 48 h
readout-name: TGI

Entry c1cc2sc1CSCCSCCSC2 — recorded TGI = > 100 µM

TGI for COc1cc2c(cc1OCCCCCN1CCN(c3cc(=O)oc4ccccc34)CC1)N=C[C@@H]1CCCN1C2=O is 19.9 µM

What the record says about N#C/C(=C\c1cc(Br)c(O)c(Br)c1)c1ccccn1 : TGI is > 100 µM

Record summary for CN1C(=O)N(C)C(N2CCCC2)c2c1nc1ccccn1c2=O (stereo not given) : reported TGI = > 100 µM

Value of measured TGI for the entry Cc1oc2c(c1C)S(=O)(=O)C(C#N)=CN2 : > 100 µM

Entry O=C1[C@H]2ON(c3ccccc3)C(c3ccc(Cl)cc3Cl)[C@H]2C(=O)N1c1ccc(Cc2ccc(N3C(=O)[C@@H]4ON(c5ccccc5)C(c5ccc(Cl)cc5Cl)[C@@H]4C3=O)cc2)cc1 (stereo not given in full) , TGI reported as > 100 µM

Lab book: TGI of FC(F)(F)c1cccc2ns[s+]c12 noted as > 100 µM

// TGI lookup, compound = COc1ccc(C(O)c2cc3c(N)c(C(=O)Nc4cccc(OC)c4)sc3nc2C)cc1 (stereo not given) , result: > 50 µM

For COc1cc(NC(=O)c2ccc(C(F)(F)F)nc2Nc2ccc(Cl)cc2C)cc(OC)c1OC the compound record lists TGI as > 100 µM

TGI in this record for O=c1oc2ccc(Cl)cc2cc1C1=CSC2=NCCN12 : 38.7 µM
